Assign cytotoxicity at 10 µM to each entry below.
test.method.notes: Toxicity liver stage against HepG2, at 10uM
Format: cell-based
Design: test concentration 10 uM, cell line HepG2-A16-CD81EGFP
test.settings: human, HepG2-A16-CD81EGFP cells; read-out: INHIBITION
One number for each entry, in %.

Give measured cytotoxicity at 10 µM for every item shown.
1. CN1Cc2ccccc2CC2(CCN(C(=O)N3CCOCC3)CC2)C1=O
2. Cc1nn(C)c2cn(C(C)C(=O)NCc3cccnc3)nc12 (stereo unspecified)
3. Cc1ccc(CC2COCCN(S(C)(=O)=O)C2)nc1 (stereo unspecified)

Given back:
1.02
5.55
-0.56

====

test.method.notes: Toxicity liver stage against HepG2, at 10uM
Type: cell-based
Set-up: test concentration 10 uM, cell line HepG2-A16-CD81EGFP
test.settings: human, HepG2-A16-CD81EGFP cells; read-out: INHIBITION
readout.name: cytotoxicity at 10 µM (%)
Numbers only, in %.

1) CSc1ccccc1NC(=O)C1CN(C(=O)c2ccc3c(c2)OCO3)C1: -12.3

Give measured cytotoxicity at 10 µM for every item shown.
1. Cc1nc(-c2cccc(C#N)c2)nn1CC1(O)CCCCC1
2. Cc1ccc(CN(C(=O)c2cccc(NC(N)=O)c2)C2CC2)o1
3. O=C(c1ccco1)N1CCC2(CCOC2)C1 (configuration not stated)
4. Cn1cc(N2CCC3(CCCN(Cc4ccoc4)C3)C2=O)cn1 (configuration not stated)
5. O=C1CCC2(CCN(Cc3ccsc3)CC2)N1Cc1ccccc1
6. Cc1nc(Cn2nc(C3CCNCC3)n(Cc3ccccc3)c2=O)no1

Given back:
[-2.62, 2.69, -3.65, -77, 0.552, -19.3]

Give measured cytotoxicity at 10 µM for every item shown.
1. CCCc1nc(C)c(C(=O)Nc2cccc(C)n2)s1
2. Clc1cccc2c1CCN(Cc1nc(CC3CC3)no1)C2
3. C1CCN(CCN2CCCCC2C2OCCO2)CC1 (configuration not stated)
4. O=C(c1ccncc1)N1CCCC(C2=Nc3ccccc3S(=O)(=O)N2)C1 (configuration not stated)
5. CCn1cc(CN(C)C(=O)C(c2ccccc2C)N(C)C)cn1 (configuration not stated)

Given back:
1. -40.8
2. 0.873
3. 3.19
4. 4.26
5. 0.0381

====

Assign cytotoxicity at 10 µM to each entry below.
test.method.notes: Toxicity liver stage against HepG2, at 10uM
Assay type: cell-based
Design: test concentration 10 uM, cell line HepG2-A16-CD81EGFP
test.settings: human, HepG2-A16-CD81EGFP cells; read-out: INHIBITION
Give bare numbers, in %.

1. COc1c(C2CCCN2C(=O)c2c[nH]c3ncccc23)c(C)nn1C (stereo not given): -6.49
2. O=C(O)c1ccccc1C1CCN(C2CCN(c3ccccc3)CC2)C1 (stereo not given): -14.5
3. CCOc1ccccc1NC(C)C(=O)N(C)Cc1cccc(F)c1 (stereo not given): 12.1
4. Cc1ccc(CSc2nc(N)cc(NCCC(=O)N3CCCC3)n2)cc1: 1.87
5. Cc1ccc(CN2Cc3nccn3CC(Cn3cncn3)C2)s1 (stereo not given): -141

Give measured cytotoxicity at 10 µM for every item shown.
1. COCCCN1CC2(CCCCN2C(=O)COC)CC1=O (stereo not given)
2. Cc1c[nH]c(C2COCCN2C(=O)c2ccc(=O)[nH]n2)n1 (stereo not given)
3. CC(C)Cn1c2c(ccc1=O)CC(N)CC2 (stereo not given)
4. O=C(N1CCCC1)C1(Cc2ccc(-c3cccs3)cc2)CCNC1 (stereo not given)
5. N#Cc1cccc(NC(=O)N2CCCC(N3CCCC3=O)C2)c1 (stereo not given)
6. Cc1cc(N2CCCN(C(=O)CSCC3CC3)CC2)ccn1
7. O=C(c1cnc(-c2cccnc2)nc1)N1CCSCC1
8. Oc1nc(N2CCOCC2)nc2nccc(-c3ccccn3)c12

Given back:
1: 2.5; 2: -8.77; 3: 8.03; 4: -1.75; 5: 7.92; 6: -1.9; 7: 0.431; 8: 7.52

====

Assign cytotoxicity at 10 µM to each entry below.
test.method.notes: Toxicity liver stage against HepG2, at 10uM
Format: cell-based
Set-up: test concentration 10 uM, cell line HepG2-A16-CD81EGFP
test.settings: human, HepG2-A16-CD81EGFP cells; read-out: INHIBITION
One number for each entry, in %.

1. COc1ccc(C(N)=O)cc1NCc1ncc(C(C)(C)C)o1: -8.2
2. Cc1cccc(OCCC(=O)NC(C)c2nnc3n2CCC3)c1 (stereo unspecified): -12.8
3. Cc1cccc(C(C(=O)NC(C)(C)CN2CCOCC2)N(C)C)c1 (stereo unspecified): -2.21
4. Cc1nc2cc(F)cc(C(=O)N3CCN(CCO)CC3)c2nc1C: -3.31
5. CCOc1cc(C(=O)N2CCCC(n3cncn3)C2)ccc1C (stereo unspecified): -4.35
6. CCc1ccc(S(=O)(=O)N2Cc3c(CN(C)C)nn(C)c3C2)cc1: -106
7. COc1ccccc1OC1(C(=O)O)CCN(c2nc(C)cnc2C)CC1: -13.6
8. COc1ccc(-n2ncc(C(C)NCc3cnc(SC)nc3)c2C)cc1 (stereo unspecified): 0.423

Give measured cytotoxicity at 10 µM for every item shown.
1. CC(C)(C)OC(=O)NCC1CCCCN1Cc1cccnc1 (stereo unspecified)
2. CC(C)(C)CC(=O)N1CCC(c2nn(CCN)c3nccnc23)C1 (stereo unspecified)
3. NC(=O)CSc1ccccc1NCc1nc(Cc2ccccc2)no1

Given back:
[-0.502, -20.9, 7.04]

====

Assign cytotoxicity at 10 µM to each entry below.
test.method.notes: Toxicity liver stage against HepG2, at 10uM
Assay type: cell-based
Set-up: test concentration 10 uM, cell line HepG2-A16-CD81EGFP
test.settings: human, HepG2-A16-CD81EGFP cells; read-out: INHIBITION
Give bare numbers, in %.

Give measured cytotoxicity at 10 µM for every item shown.
1. COc1nc(C)c(C(=O)N2CCN(c3ncccc3C)CC2)s1
2. O=C(CCCOc1ccccc1F)Nc1cc[nH]n1
3. O=S(=O)(c1cccnc1)N1CCN(CC(O)c2cccs2)CC1 (configuration not stated)
4. CCOc1ccnc(N[C@@H](Cc2ccccc2)C(N)=O)n1
5. c1cnc2c(c1)CN(C1CCOC1)CCN2CC1CC1 (configuration not stated)

Given back:
1: 2.87; 2: -11; 3: -4.21; 4: 10.7; 5: 4.92

Give measured cytotoxicity at 10 µM for every item shown.
1. Cc1csc(N2CCCN(C(=O)C3(C#N)CCCCC3)CC2)n1
2. COCCN1CCn2c(CN(C)C(C)C)cnc2C1
3. Cc1ccc(C(=O)NCCSCc2cccs2)cn1

Given back:
1: -2.45; 2: -2.92; 3: -3.95

Give measured cytotoxicity at 10 µM for every item shown.
1. CCOCCn1nc(C)cc1C(=O)N1C[C@@H](C)[C@](O)(C2CC2)C1
2. Cc1ccc(-c2ncc(C(=O)N3CCCN4CCC[C@H]4C3)c(O)n2)cc1

Given back:
[-3.9, -8.04]

Give measured cytotoxicity at 10 µM for every item shown.
1. CCn1ccnc1CN(C)C(=O)Cn1ccc2ccccc2c1=O
2. CC(C)COC(C)C(=O)NCc1ccc(OC(C)C)nc1 (configuration not stated)

Given back:
2.37
2.12

====

test.method.notes: Toxicity liver stage against HepG2, at 10uM
Assay type: cell-based
Set-up: test concentration 10 uM, cell line HepG2-A16-CD81EGFP
test.settings: human, HepG2-A16-CD81EGFP cells; read-out: INHIBITION
Assign cytotoxicity at 10 µM to each entry below.
Give bare numbers, in %.

Guide cases for cytotoxicity at 10 µM, answers given:
1) CCS(=O)(=O)Nc1cnn(Cc2cccc(F)c2)c1: -1
2) CCCC(=O)N1CCCC(c2cc3cccnc3c(O)n2)C1 (configuration not stated): 7.53
3) CN1CCCC(c2ccc(N3CCOCC3)cn2)C1 (configuration not stated): -6.47
4) c1cc(OCc2ccc3c(c2)OCCO3)ccc1CNC1CC1: -0.73
5) Cc1cncc(C2CCCN(C(=O)c3c[nH]c(=O)[nH]c3=O)C2)n1 (configuration not stated): 1.92
6) CCN1CC[C@@]2(C(=O)N3CCOCC3)CCN(C(=O)C(C)C)CC[C@@H]12: -11.5

Give measured cytotoxicity at 10 µM for every item shown.
1. Fc1ccc(OCc2nnc([C@H]3CCN(Cc4cccnc4)C3)o2)cc1
2. CC(=O)Nc1ccc(-c2ccccc2CCN)cc1
3. Cc1nc(O)c2nnn(C[C@H]3CCCN3C(=O)C(C)(C)C)c2n1
4. Cc1cc(N2CCN(C(=O)c3cc(Cl)c[nH]3)CC2)nc(N)n1

Given back:
[-5.72, 3.61, 3.25, -6.28]

Give measured cytotoxicity at 10 µM for every item shown.
1. N#Cc1ccc(N2CCN(c3nccs3)CC2)nc1
2. CC(C)c1nc(C2CCCN(Cc3nnc(C4CC4)o3)C2)no1 (configuration not stated)
3. CCCS(=O)(=O)NC(C)C(=O)NCc1ccnc(N2CCCC2)c1 (configuration not stated)
4. COCCNC(=O)Cn1c(-c2ccc(F)cc2)nc(C)c(CCO)c1=O
5. CC1=Nc2c(c(=O)[nH]n2C2CCCCC2)C(c2ccc(C(=O)O)cc2)S1 (configuration not stated)
6. C[C@@H]1CN(Cc2ccccc2)CCN1C(=O)NCc1nccs1
7. CCOc1cc(CNC(C)c2sccc2C)ccn1 (configuration not stated)

Given back:
1. 31
2. 5.65
3. -13.6
4. -15
5. -7.92
6. -142
7. -8.14

Give measured cytotoxicity at 10 µM for every item shown.
1. COCCN1CCO[C@@H]2CN(C(=O)Cc3cccc(F)c3)CC[C@@H]2C1
2. O=C(C1CCCC1)N1CC2(CCN(C3COC3)CC2)Cc2ccccc21
3. O=C1CCCN1CCCN1CCCC(Cn2cncn2)C1 (configuration not stated)
4. Cc1nc(CN(C)C2CCN(Cc3ccc(C(N)=O)cc3)C2)no1 (configuration not stated)
5. CNc1nc(CNC(=O)Nc2cccc(-n3ccc(C)n3)c2)cs1
6. CC(C)c1nc(C2CCCN2CC(=O)N2CCNC2=O)no1 (configuration not stated)

Given back:
1: 5.95; 2: 7.91; 3: -1.82; 4: -12.7; 5: -15.7; 6: -8.96

Give measured cytotoxicity at 10 µM for every item shown.
1. COc1nn(C)cc1C(=O)NCC1(O)CCOCC1
2. COc1nccc(N2CC[C@@H](N3CCC(O)CC3)[C@H](O)C2)c1C#N

Given back:
1. -14.7
2. -152

Origin of values: ChEMBL document CHEMBL4513216
